# ASSAYED_SYSTEM: rat P2X7 (Rattus norvegicus (Rat))
# Sequence (Q64663 whole entry): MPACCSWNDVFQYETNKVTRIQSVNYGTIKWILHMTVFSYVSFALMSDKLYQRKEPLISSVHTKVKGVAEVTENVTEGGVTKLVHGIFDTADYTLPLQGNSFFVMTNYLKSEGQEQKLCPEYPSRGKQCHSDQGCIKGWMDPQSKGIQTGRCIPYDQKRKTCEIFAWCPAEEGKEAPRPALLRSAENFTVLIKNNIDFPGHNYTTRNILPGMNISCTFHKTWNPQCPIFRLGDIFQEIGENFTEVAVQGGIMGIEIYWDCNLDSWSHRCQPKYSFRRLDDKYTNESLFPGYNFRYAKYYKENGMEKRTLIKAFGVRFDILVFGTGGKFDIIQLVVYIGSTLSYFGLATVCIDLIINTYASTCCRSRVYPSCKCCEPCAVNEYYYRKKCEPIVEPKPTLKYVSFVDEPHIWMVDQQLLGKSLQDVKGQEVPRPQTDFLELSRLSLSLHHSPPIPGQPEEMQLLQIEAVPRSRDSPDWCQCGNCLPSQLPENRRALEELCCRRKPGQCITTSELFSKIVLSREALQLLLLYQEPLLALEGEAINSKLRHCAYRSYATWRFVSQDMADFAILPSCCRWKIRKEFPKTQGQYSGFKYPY
# MEASUREMENT_PROTOCOL: Rat P2X7 functional assay (Ca2+ influx, Fluo-4, FDSS, BzATP activation)
# CONDITION_DESCRIPTION: HEK293 cells stably expressing rat P2X7; BzATP final 10 microM; read-out: Antagonistic activities with respect to the rat P2X7 receptor (IC50)
# Protocol: Rat P2X7 Functional Assay The functional activity of compounds was determined by measuring changes in intracellular calcium concentration using a Ca^2+-sensitive fluorescent dye, Fluo-4 (Molecular Probes). The changes in fluorescent signal were monitored by the cell imaging technology by Hamamatsu Photonics's Functional Drug Screening System (FDSS). Increases in intracellular Ca^2+ concentration were readily detected upon activation with BzATP. […]
MEASUREMENT_TYPE: IC50

**Query** # query: IC50 | item `Cc1cc(Cl)cc(Cl)c1CNC(=O)[C@@H]1CC[C@H](O)c2ncccc21` | system: rat P2X7 (Rattus norvegicus (Rat))
**Result** < 1000 nM
